The reported numbers originate from BindingDB's records for patent US12338253.

# Subject of test: Proto-oncogene tyrosine-protein kinase receptor Ret [V804M] (Human, UniProt P07949, V804M)
# Sequence (P07949 29-1114 V804M limits assumed): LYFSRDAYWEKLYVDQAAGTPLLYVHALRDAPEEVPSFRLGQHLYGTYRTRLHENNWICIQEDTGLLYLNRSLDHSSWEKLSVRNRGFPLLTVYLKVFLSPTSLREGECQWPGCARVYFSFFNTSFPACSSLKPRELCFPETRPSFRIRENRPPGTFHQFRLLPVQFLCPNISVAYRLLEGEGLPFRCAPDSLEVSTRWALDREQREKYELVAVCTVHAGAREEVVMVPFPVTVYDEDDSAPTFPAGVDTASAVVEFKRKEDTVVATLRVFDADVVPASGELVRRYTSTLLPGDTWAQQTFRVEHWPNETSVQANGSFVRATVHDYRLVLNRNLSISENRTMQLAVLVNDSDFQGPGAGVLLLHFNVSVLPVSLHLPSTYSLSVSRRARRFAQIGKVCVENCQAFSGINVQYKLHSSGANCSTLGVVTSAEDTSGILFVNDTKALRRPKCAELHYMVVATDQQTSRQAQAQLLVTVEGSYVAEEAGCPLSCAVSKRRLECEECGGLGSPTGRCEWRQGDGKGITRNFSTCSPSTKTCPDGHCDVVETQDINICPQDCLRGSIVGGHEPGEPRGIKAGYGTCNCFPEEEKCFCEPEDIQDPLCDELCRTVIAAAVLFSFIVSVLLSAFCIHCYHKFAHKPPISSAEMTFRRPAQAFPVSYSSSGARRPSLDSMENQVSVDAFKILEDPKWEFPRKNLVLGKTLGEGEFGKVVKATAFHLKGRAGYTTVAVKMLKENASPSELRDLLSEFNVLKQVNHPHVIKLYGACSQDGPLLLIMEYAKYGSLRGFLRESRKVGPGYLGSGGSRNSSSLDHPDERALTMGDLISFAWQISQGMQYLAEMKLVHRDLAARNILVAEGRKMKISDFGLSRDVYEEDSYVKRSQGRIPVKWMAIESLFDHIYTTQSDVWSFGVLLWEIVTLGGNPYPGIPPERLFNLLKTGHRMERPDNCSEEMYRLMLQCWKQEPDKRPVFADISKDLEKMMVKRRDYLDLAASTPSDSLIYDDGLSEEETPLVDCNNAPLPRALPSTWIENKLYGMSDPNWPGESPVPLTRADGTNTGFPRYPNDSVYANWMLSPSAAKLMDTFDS
# Assay method text: Kinase Activity Assay
Metric: IC50 (nM)
Express the result in nM but write the number alone.

**Q:** Using the record for COc1ccc(CN2C3CC2CN(c2ccc(-c4cc(OC[C@@H]5CNCCO5)cn5nc6[nH]ncc6c45)cn2)C3)cn1 , state its measured IC50.
**A:** 0.1
